// cross-study collection: IC50 for Neuromedin-K receptor (Homo sapiens, UniProt P29371)

Sample answers from the record:
> print(dat)
                                   molecule     result
1  C[C@@H](O[C@@H]1CN(C2=CC(=O)CC2)C[C@H]1c1ccc(F)cc1)c1cc(C(F)(F)F)cc(C(F)(F)F)c1     > 3 µM
2  COc1ccccc1COC(=O)[C@H](Cc1c[nH]c2ccccc12)NC(=O)OC(C)(C)C     > 5 µM
3  O=C(c1ccccc1)N1CCCC(CCCN2CCC3(CC2)CN(c2ccccc2)NC3=O)(c2ccc(Cl)c(Cl)c2)C1 (centres undefined)  0.0068 µM

Query molecule follows.
Please give the measured IC50 for this molecule: `CNC(=O)N[C@@H](Cc1c[nH]c2ccccc12)C(=O)OCc1cc(C)cc(C)c1`
> 5 µM

---

// cross-study collection: IC50 for Neuromedin-K receptor (Homo sapiens, UniProt P29371)
target_under_test: Neuromedin-K receptor (Homo sapiens, UniProt P29371)
Sequence (P29371 whole entry): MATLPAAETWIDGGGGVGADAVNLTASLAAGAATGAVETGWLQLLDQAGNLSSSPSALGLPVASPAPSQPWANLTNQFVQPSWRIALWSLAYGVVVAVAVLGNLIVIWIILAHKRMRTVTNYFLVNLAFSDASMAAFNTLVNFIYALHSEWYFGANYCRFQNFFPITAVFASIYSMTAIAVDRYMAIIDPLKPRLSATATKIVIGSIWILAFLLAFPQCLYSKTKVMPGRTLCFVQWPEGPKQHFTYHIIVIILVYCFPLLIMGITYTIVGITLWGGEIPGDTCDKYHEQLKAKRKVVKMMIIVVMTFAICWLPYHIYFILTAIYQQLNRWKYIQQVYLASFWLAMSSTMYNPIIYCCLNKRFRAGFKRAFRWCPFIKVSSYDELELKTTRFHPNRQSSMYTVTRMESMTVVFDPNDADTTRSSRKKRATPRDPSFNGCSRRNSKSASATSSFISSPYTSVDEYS
measured_metric: IC50 (µM)

[P] Cc1cccc(-c2nnc3n2CCN(C(=O)c2ccc(F)cc2)[C@@H]3C)n1
[Q] Cc1ccnc(-c2nnc3n2CCN(C(=O)c2ccc(F)cc2)C3)c1
[R] Cc1nsc(-c2nnc3n2CCN(C(=O)c2ccc(Cl)cc2)[C@@H]3C)n1
[S] O=C(Cc1ccccc1)N1CCC(Cc2ccccc2)C1 (centres undefined)
Rank the items above by IC50, largest value first. Put the labels in the requested order and list them out.
S, Q, P, R
(S: 9.4 µM, Q: 6.31 µM, P: 0.0794 µM, R: 0.0316 µM)

---

// cross-study collection: IC50 for Neuromedin-K receptor (Homo sapiens, UniProt P29371)
measured_metric: IC50 (nM)

[1] C[C@@H]1c2nnc(-c3ccccn3)n2CCN1C(=O)c1ccc(F)cc1
[2] C[C@@H]1c2nnc(-c3csc(C(F)(F)F)n3)n2CCN1C(=O)c1ccc(-c2cccs2)cc1
Given 1 and given 2 , which shows the smaller recorded IC50? Respond using the label that marks the chosen record.
2

[P] O=C(c1ccc(-c2ccccc2)cc1)N1CCn2c(nnc2-c2ccccn2)C1
[Q] Cc1cccc(-c2nnc3n2CCN(C(=O)c2ccc(F)cc2)C3)n1
Given P and given Q , which shows the smaller recorded IC50? Respond using the label that marks the chosen record.
Q

[P] O=C(c1ccc(-c2ccc(F)cc2)cc1)N1CCn2c(nnc2-c2ccccn2)C1
[Q] Cc1ccccc1[C@H]1[C@@H]2CN(C3=NC(=O)CO3)C[C@H]2CC[C@@H]1O[C@H](CO)c1cc(C(F)(F)F)cc(C(F)(F)F)c1
[R] O=C(c1ccccc1)N1CCCC(CCCN2CCC3(CCc4ccccc43)CC2)(c2ccc(Cl)c(Cl)c2)C1 (stereo not given)
[S] CC(C)c1nc(-c2nnc3n2CCN(C(=O)c2ccc(-c4cccs4)cc2)[C@@H]3C)co1
[T] C[C@@H]1c2nnc(-c3csc(-c4ccccc4)n3)n2CCN1C(=O)c1ccc(F)cc1
Rank entries according to their IC50, from the largest number down. Put the labels in the requested order and list them out.
Q, P, T, S, R

[1] O=C(c1ccc(F)cc1)N1CCn2c(nnc2-c2cccc(C(F)(F)F)n2)C1
[2] C[C@@H](O[C@H]1CC[C@@H]2CN(C3=CC(=O)CC3)C[C@H]2[C@@H]1c1ccc(F)cc1)c1cc(C(F)(F)F)cc(C(F)(F)F)c1
// which entry has the larger IC50 value, 1 or 2 ? Respond using the label that marks the chosen record.
2
(2: 2400 nM, 1: 398 nM)

---

pIC50: −log10 of the molar value.
// cross-study collection: pIC50 for Neuromedin-K receptor (Homo sapiens, UniProt P29371)

Sample answers from the record:
> print(dat)
                                   compound                         target.under.test  result
1  CC(=O)N[C@@H](Cc1c[nH]c2ccccc12)C(=O)OCc1cc(C)cc(C)c1  Neuromedin-K receptor (Homo sapiens, UniProt P29371)  < 5.30
2  CC(=O)N[C@@H](Cc1n[nH]c2ccccc12)C(=O)OCc1cc(C(F)(F)F)cc(C(F)(F)F)c1 (racemic)  Neuromedin-K receptor (Homo sapiens, UniProt P29371)  < 5.30
3  COc1ccc(-c2ccc(C(=O)N3CCn4c(nnc4-c4ccccn4)C3)cc2)cc1  Neuromedin-K receptor (Homo sapiens, UniProt P29371)  < 4.50
4  O=C(c1cc(-c2ccc(Cl)cc2)n[nH]1)N1CCn2c(nnc2-c2ccccn2)C1  Neuromedin-K receptor (Homo sapiens, UniProt P29371)    5.80

Query compound follows.
Form entry - test system: Neuromedin-K receptor (Homo sapiens, UniProt P29371); read-out: pIC50; compound: `O=C(NCc1cc(C(F)(F)F)cc(C(F)(F)F)c1)[C@@H](NCCN1CCCCC1)c1ccsc1`
< 6.00

---

target_under_test: Neuromedin-K receptor (Homo sapiens, UniProt P29371)
Sequence (P29371 whole entry): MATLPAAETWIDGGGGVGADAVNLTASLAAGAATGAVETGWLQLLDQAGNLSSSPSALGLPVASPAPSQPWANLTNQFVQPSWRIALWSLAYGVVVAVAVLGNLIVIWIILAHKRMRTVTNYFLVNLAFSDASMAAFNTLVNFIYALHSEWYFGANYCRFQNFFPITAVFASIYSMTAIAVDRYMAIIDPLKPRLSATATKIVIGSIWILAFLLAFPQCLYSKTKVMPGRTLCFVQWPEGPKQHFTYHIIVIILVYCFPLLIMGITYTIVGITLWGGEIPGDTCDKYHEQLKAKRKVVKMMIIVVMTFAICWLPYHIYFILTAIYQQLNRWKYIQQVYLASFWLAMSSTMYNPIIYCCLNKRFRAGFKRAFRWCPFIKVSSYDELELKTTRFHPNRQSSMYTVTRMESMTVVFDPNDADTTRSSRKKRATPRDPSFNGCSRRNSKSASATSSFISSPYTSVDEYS
// cross-study collection: IC50 for Neuromedin-K receptor (Homo sapiens, UniProt P29371)

Sample answers from the record:
> print(dat)
                                   molecule     result
1  Cc1cc(C)cc(COC(=O)[C@H](Cc2c[nH]c3ccccc23)NC(=O)OC(C)(C)C)c1     > 5 µM
2  Cc1cccnc1-c1nnc2n1CCN(C(=O)c1ccc(F)cc1)C2  > 31.6 µM
3  FC(F)(F)c1cc(CO[C@H]2CCCN[C@H]2c2ccccc2)cc(C(F)(F)F)c1     > 1 µM
4  O=C1CCC(CCCN2CCC(n3c(=O)[nH]c4ccccc43)CC2)(c2ccc(Cl)c(Cl)c2)CN1Cc1ccccc1 (centres undefined)   0.539 µM
5  CC(=O)N[C@@H](Cc1ccccc1)C(=O)OCc1cc(C)cc(C)c1     > 5 µM

Query molecule follows.
Please give the measured IC50 for this molecule: `COc1ccc(C(=O)N2CCn3c(nnc3-c3ccccn3)C2)cc1`
> 31.6 µM
